target: SHP2-C SH2; assay: SH2 binding enrichment of the phosphorylated peptide, bacterial display (enrichment ratio); higher = better substrate or ligand; peptides without Tyr show the background
OBSERVATION_TYPE: SH2 binding enrichment

Previously resolved entries follow.
>  <INPUT_SEQUENCE>
EDGRLYAVKCS [PKMYT1_Y136_R140C]

>  <SH2 binding enrichment>
0.714

$$$$
>  <INPUT_SEQUENCE>
KKIMGYSIRTI [IDS_Y490_I485K]

>  <SH2 binding enrichment>
1.2

$$$$
>  <INPUT_SEQUENCE>
ALTDNYMYLVI [HAGH_Y61]

>  <SH2 binding enrichment>
0.544

$$$$
>  <INPUT_SEQUENCE>
MGSYNYLGFAW [SPTLC2_Y178_R183W]

>  <SH2 binding enrichment>
0.845

$$$$
>  <INPUT_SEQUENCE>
QMIETYFDFRV [NSMF_Y506_L511V]

>  <SH2 binding enrichment>
0.607

$$$$

a. TWSPKYTLRSH [STRN3_Y474_N471S]
b. GIVEDYRPPLF [ACVRL1_Y421_F425L_YF]
c. MTEEQYIKMNR [ARFGEF2_Y797_K794E]
# input Put the sequences in ascending order of SH2 binding enrichment. Please express your ranking as an ordered list of the labels.
# output c, b, a
(c: 0.435, b: 0.671, a: 1.16)

I. GESQGYDIMEA [MSH2_Y863_P868A]
II. FFRDGHMPRQF [GSS_Y270_Y270H_YF]
III. RTLIRYANLSN [BEST1_Y131_G135S]
# input Arrange these sequences by their SH2 binding enrichment, starting with the largest number. Output spec: labels arranged per the requested ranking.
# output III, I, II

A. SVTCTYSPGLN [TP53_Y126_A129G]
B. SLDLSYFPTSS [EMD_Y181_YF]
C. MLEAPYVDRNS [F10_Y384_V382A]
# input Order the items by recorded SH2 binding enrichment; the first position goes to the largest value. Your answer should be the labels, listed in the requested order.
# output B, C, A
(B: 1.1, C: 0.743, A: 0.469)

----------
biological target: FGFR1 (UniProt P11362); test: phosphorylation enrichment, bacterial display (enrichment ratio); higher = better substrate or ligand; peptides without Tyr show the background
Sequence (P11362 whole entry, looked up): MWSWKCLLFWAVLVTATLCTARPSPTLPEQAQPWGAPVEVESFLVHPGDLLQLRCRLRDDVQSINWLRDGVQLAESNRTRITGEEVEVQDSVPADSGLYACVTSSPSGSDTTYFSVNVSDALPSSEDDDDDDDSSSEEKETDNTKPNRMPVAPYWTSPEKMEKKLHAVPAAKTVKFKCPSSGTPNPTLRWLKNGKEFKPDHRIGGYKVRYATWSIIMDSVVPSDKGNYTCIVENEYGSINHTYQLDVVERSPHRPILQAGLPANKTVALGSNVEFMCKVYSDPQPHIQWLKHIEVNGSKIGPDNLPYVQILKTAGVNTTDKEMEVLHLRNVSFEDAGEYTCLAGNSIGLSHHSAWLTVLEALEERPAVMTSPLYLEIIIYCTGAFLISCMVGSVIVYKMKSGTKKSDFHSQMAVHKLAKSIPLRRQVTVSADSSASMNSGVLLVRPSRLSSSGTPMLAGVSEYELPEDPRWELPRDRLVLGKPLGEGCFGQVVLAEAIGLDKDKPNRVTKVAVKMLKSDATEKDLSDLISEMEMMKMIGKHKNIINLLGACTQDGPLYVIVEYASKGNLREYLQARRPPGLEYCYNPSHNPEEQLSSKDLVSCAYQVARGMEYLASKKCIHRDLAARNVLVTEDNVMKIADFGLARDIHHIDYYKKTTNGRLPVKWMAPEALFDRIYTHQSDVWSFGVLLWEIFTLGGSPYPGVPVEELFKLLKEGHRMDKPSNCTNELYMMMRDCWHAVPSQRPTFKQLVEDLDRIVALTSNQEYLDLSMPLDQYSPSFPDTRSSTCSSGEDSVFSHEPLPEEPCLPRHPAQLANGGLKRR
OBSERVATION_TYPE: phosphorylation enrichment
Lab note: jot down the number only; don't add units.

Answered cases to consult:
>  <INPUT_SEQUENCE>
KLQQWYREHRS [GPI_Y17]

>  <phosphorylation enrichment>
0.434

$$$$
>  <INPUT_SEQUENCE>
KGEPQYSSHSS [SIPA1L3_Y1265]

>  <phosphorylation enrichment>
0.298

$$$$
>  <INPUT_SEQUENCE>
VIVRMYDFHVL [RPF2_Y109_G106V_YF]

>  <phosphorylation enrichment>
0.462

$$$$
>  <INPUT_SEQUENCE>
VDASFCGGRGV [ANTXR2_Y381_Y381C_YF]

>  <phosphorylation enrichment>
0.531

$$$$

Kindly consider the entry below.
# input Kindly state the measured phosphorylation enrichment obtained for NFFDTCIKTCL [IQGAP2_Y1445_Y1445C_YF] with FGFR1 (UniProt P11362).
# output 0.476

----------
biological target: Fyn (UniProt P06241); experiment: phosphorylation enrichment, bacterial display (enrichment ratio); higher = better substrate or ligand; peptides without Tyr show the background
Sequence (P06241 whole entry, looked up): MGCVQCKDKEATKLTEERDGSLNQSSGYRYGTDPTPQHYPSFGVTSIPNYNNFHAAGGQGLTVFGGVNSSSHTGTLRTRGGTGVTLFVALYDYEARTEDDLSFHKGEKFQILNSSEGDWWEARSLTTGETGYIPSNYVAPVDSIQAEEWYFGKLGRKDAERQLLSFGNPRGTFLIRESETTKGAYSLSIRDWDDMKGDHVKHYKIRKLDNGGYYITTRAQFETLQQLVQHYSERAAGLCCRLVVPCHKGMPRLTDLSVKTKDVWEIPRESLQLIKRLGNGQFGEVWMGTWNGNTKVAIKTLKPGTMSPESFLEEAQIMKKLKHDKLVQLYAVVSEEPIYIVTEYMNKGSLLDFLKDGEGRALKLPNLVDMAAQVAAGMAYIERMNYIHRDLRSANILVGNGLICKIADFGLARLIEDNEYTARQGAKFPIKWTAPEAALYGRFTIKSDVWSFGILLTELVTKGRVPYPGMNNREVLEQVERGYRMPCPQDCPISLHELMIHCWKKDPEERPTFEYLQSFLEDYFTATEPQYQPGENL
OBSERVATION_TYPE: phosphorylation enrichment
// keep it numeric: no unit symbol after the value

>  <INPUT_SEQUENCE>
NYNPNYCFAGK [ALK_Y1096_D1091N]

>  <phosphorylation enrichment>
0.57

$$$$

Now for the sequence whose phosphorylation enrichment we want.
# input Which phosphorylation enrichment reading was recorded for the sequence GPQGFYSNKLV [PTPN14_Y506_V505F] ?
# output 0.348

----------
This section presents sequences with their documented phosphorylation enrichment values.
biological target: Jak2 (UniProt O60674); experiment: phosphorylation enrichment, bacterial display (enrichment ratio); higher = better substrate or ligand; peptides without Tyr show the background
Sequence (O60674 whole entry, looked up): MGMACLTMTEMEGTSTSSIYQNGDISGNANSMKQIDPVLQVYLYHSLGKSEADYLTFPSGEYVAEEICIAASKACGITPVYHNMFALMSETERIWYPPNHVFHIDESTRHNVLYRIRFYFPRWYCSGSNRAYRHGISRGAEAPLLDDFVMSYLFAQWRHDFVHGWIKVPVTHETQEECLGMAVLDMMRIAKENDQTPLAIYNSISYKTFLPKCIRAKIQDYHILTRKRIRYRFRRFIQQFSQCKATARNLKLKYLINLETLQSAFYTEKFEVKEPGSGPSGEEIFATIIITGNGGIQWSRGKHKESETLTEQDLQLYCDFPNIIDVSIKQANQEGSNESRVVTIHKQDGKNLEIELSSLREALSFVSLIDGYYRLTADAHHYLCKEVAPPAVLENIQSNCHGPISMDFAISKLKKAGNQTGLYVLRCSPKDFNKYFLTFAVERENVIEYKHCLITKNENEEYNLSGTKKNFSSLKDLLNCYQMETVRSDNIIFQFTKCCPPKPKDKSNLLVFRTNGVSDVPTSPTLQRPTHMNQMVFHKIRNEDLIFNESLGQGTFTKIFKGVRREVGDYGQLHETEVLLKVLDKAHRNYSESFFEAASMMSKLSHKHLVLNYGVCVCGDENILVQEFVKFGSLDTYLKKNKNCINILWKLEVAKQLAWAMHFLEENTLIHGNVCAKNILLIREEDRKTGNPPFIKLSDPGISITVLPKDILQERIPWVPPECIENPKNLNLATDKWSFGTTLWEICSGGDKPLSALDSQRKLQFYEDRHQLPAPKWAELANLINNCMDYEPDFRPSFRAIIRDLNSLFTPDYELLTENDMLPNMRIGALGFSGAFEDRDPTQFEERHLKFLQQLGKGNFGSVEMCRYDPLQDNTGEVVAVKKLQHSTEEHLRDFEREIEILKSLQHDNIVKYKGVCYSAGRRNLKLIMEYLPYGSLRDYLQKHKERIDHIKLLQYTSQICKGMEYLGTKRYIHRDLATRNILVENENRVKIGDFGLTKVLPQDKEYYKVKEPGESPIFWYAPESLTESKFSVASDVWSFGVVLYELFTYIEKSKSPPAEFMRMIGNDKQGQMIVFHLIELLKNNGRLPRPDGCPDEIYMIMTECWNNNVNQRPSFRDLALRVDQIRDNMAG
Lab note: record the figure alone, no unit after it.

>  <INPUT_SEQUENCE>
CTTTHYNFMCN [TP53_Y234_I232T_YF]

>  <TARGET_OF_ASSAY>
Jak2 (UniProt O60674)

>  <OBSERVATION_TYPE>
phosphorylation enrichment

>  <READING>
0.561

$$$$
>  <INPUT_SEQUENCE>
RLLVVYPWTKR [HBB_Y36_Q40K]

>  <TARGET_OF_ASSAY>
Jak2 (UniProt O60674)

>  <OBSERVATION_TYPE>
phosphorylation enrichment

>  <READING>
0.475

$$$$
>  <INPUT_SEQUENCE>
FGAHNHHPLPV [OAT_Y55_Y55H_YF]

>  <TARGET_OF_ASSAY>
Jak2 (UniProt O60674)

>  <OBSERVATION_TYPE>
phosphorylation enrichment

>  <READING>
0.583

$$$$

# input What phosphorylation enrichment value was documented for this sequence, RSSGGYEPRGC [FUS_Y239_R244C] ?
# output 0.499

# input CTTIHYNFKCN [TP53_Y234_M237K_YF] ?
# output 0.545

# input Now the sequence PVKDPYVMFPQ [PLEKHG2_Y489]
# output 0.964

----------
target: c-Src SH2; experiment: SH2 binding enrichment of the phosphorylated peptide, bacterial display (enrichment ratio); higher = better substrate or ligand; peptides without Tyr show the background
OBSERVATION_TYPE: SH2 binding enrichment

>  <INPUT_SEQUENCE>
EFLQKYKGFKI [SYNE1_Y6953_YF]

>  <TARGET_OF_ASSAY>
c-Src SH2

>  <SH2 binding enrichment>
0.346

$$$$
>  <INPUT_SEQUENCE>
YLEEEYVKAVG [TF_Y674_G671E]

>  <TARGET_OF_ASSAY>
c-Src SH2

>  <SH2 binding enrichment>
0.323

$$$$
>  <INPUT_SEQUENCE>
PEADKYRLTYA [FGG_Y300]

>  <TARGET_OF_ASSAY>
c-Src SH2

>  <SH2 binding enrichment>
0.392

$$$$
>  <INPUT_SEQUENCE>
KGEDFYSVTCH [FHL1_Y149_C150S]

>  <TARGET_OF_ASSAY>
c-Src SH2

>  <SH2 binding enrichment>
0.47

$$$$
>  <INPUT_SEQUENCE>
KLSHLYQDHMQ [WNT5A_Y86_C83S]

>  <TARGET_OF_ASSAY>
c-Src SH2

>  <SH2 binding enrichment>
0.573

$$$$
>  <INPUT_SEQUENCE>
RGEAVYSRDCV [XPC_Y676]

>  <TARGET_OF_ASSAY>
c-Src SH2

>  <SH2 binding enrichment>
0.522

$$$$
>  <INPUT_SEQUENCE>
VVAHQYSFAPD [TNS3_Y601]

>  <TARGET_OF_ASSAY>
c-Src SH2

>  <SH2 binding enrichment>
1.31

$$$$
>  <INPUT_SEQUENCE>
PESILYRKFTT [NTRK1_Y701]

>  <TARGET_OF_ASSAY>
c-Src SH2

>  <SH2 binding enrichment>
0.412

$$$$

1. EEGNPYYSGAR [MCCC2_Y520_S523G]
2. LSSEMCVKSYT [F5_Y2149_Y2149C]
# input Just tell me: smaller SH2 binding enrichment value, 1 or 2 ? Respond using the label that marks the chosen record.
# output 2

----------
target: Jak2 (UniProt O60674); assay: phosphorylation enrichment, bacterial display (enrichment ratio); higher = better substrate or ligand; peptides without Tyr show the background
OBSERVATION_TYPE: phosphorylation enrichment
Respond with the number and no other words.

Some sequences with recorded phosphorylation enrichment:
>  <INPUT_SEQUENCE>
WFQTKYEELQV [KRT6B_Y360_I365V_YF]

>  <phosphorylation enrichment>
0.788

$$$$
>  <INPUT_SEQUENCE>
RTLIRYANLSN [BEST1_Y131_G135S]

>  <phosphorylation enrichment>
0.792

$$$$
>  <INPUT_SEQUENCE>
SDGGCYEQLFV [MC4R_Y41]

>  <phosphorylation enrichment>
0.991

$$$$
>  <INPUT_SEQUENCE>
RHLREYQDLLN [DES_Y388]

>  <phosphorylation enrichment>
0.807

$$$$
>  <INPUT_SEQUENCE>
TFSPPYYHRNC [HGD_Y333_R330S]

>  <phosphorylation enrichment>
0.83

$$$$

# input Please provide the recorded phosphorylation enrichment for ATPKGYELDAS [OTC_Y223_P225L] , tested on Jak2 (UniProt O60674).
# output 1

# input One more sequence: WIPIQYPIISE [NOG_Y222]
# output 0.622

# input Now this one: VQVAYYTMMMN [SPATA17_Y84]
# output 4.11

# input Queued: GVSYIYTIDGS [DCX_Y105_R102S]
# output 0.944

# input Cool, now RFLTRYIFNRE [HLA-DQB1_Y62_V59L_YF]
# output 1.29

# input Param item: VFSTDYFRVGG [NTRK2_Y706_YF]
# output 8.12

# input Thanks! And RKGGSYSQAAS [HLA-A_Y344_T345S] ?
# output 0.401

# input Now try FHLLPYTIRAM [PARS2_Y93_V95I_YF] .
# output 0.708

# input // query: GHLFAYDWISI [BEST1_Y227_YF]
# output 0.707

# input Lookup FSQQTYYPVSN [ABCD1_Y180_R182P]
# output 7.07
